- measurementTarget: Human Calpain 2/NS1 (Homo sapiens, UniProt P17655)
- Sequence (P17655 1-700): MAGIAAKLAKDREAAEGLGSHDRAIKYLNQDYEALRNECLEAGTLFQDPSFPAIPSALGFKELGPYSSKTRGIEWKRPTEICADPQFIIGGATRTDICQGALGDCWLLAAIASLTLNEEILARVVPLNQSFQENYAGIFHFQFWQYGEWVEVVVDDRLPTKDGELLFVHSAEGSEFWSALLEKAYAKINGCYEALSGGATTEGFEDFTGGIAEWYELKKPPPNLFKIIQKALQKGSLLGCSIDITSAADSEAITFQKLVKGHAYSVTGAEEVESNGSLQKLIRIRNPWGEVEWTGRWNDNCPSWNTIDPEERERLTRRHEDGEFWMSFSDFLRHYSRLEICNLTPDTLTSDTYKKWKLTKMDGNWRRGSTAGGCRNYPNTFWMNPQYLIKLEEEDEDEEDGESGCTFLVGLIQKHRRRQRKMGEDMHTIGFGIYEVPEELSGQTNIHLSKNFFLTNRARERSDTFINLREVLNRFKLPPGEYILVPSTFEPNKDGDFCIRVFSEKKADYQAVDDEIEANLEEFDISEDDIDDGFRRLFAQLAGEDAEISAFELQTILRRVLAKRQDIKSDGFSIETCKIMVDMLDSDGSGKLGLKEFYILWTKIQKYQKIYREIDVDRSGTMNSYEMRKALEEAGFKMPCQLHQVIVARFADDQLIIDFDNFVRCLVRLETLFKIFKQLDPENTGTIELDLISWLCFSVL
- Sequence (P04632 1-268 partner): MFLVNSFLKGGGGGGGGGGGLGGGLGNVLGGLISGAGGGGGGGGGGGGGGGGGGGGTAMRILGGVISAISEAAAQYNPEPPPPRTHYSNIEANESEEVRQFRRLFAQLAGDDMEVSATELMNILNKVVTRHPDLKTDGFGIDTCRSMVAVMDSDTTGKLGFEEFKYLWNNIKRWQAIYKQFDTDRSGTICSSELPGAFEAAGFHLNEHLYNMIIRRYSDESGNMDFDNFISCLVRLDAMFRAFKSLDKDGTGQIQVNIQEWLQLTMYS
- procedureDetails: Calpain inhibition continuous fluorescence (FRET) assay, Human Calpain 2/NS1
- Type: biochemical
- conditionContext: Column B; read-out: Human Calpain 2/NS1 IC50
endpointLabel: IC50

stdin: Please give the measured IC50 for this compound: NC(=O)C(=O)C(Cc1ccccc1)NC(=O)c1ccn(Cc2ccccc2)n1 (stereo not drawn)
stdout: > 10 µM

stdin: Please give the measured IC50 for this compound: "Cc1cc(C(=O)N[C@@H](Cc2ccccc2)C(=O)C(=O)NC2CC2)n(-c2cncc3ccccc23)n1"
stdout: 3 to 10 µM

stdin: Please give the measured IC50 for this compound: "Cc1cccc(-c2nn(C)cc2C(=O)N[C@@H](Cc2ccccc2)C(=O)C(N)=O)c1"
stdout: < 3 µM

stdin: Please give the measured IC50 for this compound: "NC(=O)C(=O)[C@H](Cc1ccccc1)NC(=O)c1occc1-c1ccccc1"
stdout: < 3 µM

stdin: Please give the measured IC50 for this compound: "Cc1cc(C(=O)N[C@@H](Cc2ccccc2)C(=O)C(N)=O)n(-c2cccc(-c3cccc(F)c3)c2)n1"
stdout: < 3 µM

stdin: Please give the measured IC50 for this compound: "O=C[C@H](Cc1ccccc1)NC(=O)c1cccc2nc(-c3ccccc3)[nH]c12"
stdout: 3 to 10 µM

###

- Test system: Calpain activity in SH-SY5Y cells
- procedureDetails: SH-SY5Y + AMC fluorescence assay (Suc-LLVY-AMC substrate)
- Format: cell-based
- conditionContext: read-out: SH-SY5Y + AMC IC50
pIC50: −log10 of the molar value.
endpointLabel: pIC50

stdin: Please give the measured pIC50 for this compound: Cn1cc(C(=O)NC(Cc2ccccc2)C(=O)C(N)=O)c(-c2cnc3ccccc3c2)n1 (stereo not drawn)
stdout: < 4.60

stdin: Please give the measured pIC50 for this compound: Cn1cc(C(=O)NC(Cc2ccccc2)C(=O)C(N)=O)c(-c2ccc(F)cc2)n1 (stereo not drawn)
stdout: 4.60 to 5.00

stdin: Please give the measured pIC50 for this compound: COc1cccc(-c2nn(C)cc2C(=O)NC(Cc2ccccc2)C(=O)C(N)=O)c1 (stereo not drawn)
stdout: 4.60 to 5.00

###

- measurementTarget: Human Calpain 9/NS1 (Homo sapiens)
- Sequence (O14815 1-690): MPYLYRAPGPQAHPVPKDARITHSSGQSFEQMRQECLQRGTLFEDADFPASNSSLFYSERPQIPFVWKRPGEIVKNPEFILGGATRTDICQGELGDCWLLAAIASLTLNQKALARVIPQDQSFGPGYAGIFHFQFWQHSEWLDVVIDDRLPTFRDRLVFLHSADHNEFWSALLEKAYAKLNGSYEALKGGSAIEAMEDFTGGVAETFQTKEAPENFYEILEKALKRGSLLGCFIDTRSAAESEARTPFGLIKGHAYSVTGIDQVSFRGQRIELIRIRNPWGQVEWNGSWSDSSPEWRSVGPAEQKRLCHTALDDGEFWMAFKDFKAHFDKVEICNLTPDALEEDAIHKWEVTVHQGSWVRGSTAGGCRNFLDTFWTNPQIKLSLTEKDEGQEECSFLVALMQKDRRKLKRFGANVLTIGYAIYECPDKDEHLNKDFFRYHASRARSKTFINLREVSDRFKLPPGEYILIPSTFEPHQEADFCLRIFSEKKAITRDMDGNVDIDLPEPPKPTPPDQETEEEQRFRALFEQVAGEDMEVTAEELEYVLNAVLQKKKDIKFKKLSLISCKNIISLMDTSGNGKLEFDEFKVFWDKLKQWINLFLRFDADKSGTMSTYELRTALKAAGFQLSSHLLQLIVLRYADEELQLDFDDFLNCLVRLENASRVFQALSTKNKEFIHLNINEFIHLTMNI
- Sequence (P04632 1-268 partner): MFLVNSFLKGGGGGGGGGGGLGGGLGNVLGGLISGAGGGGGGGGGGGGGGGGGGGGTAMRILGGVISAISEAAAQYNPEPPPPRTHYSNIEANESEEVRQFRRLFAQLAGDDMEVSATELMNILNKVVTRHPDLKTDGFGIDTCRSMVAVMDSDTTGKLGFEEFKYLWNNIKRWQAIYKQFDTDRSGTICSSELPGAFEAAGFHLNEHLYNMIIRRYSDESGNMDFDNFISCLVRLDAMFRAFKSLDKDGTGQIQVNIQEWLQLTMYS
- procedureDetails: Calpain inhibition continuous fluorescence (FRET) assay, Human Calpain 9/NS1
- Assay type: biochemical
- conditionContext: Column C; read-out: Human Calpain 9/NS1 IC50
Task for the reader: assign each of the following compounds its reported IC50.

stdin: Please give the measured IC50 for this compound: "NC(=O)C(=O)[C@H](Cc1ccccc1)NC(=O)c1ccnn1-c1ccccc1"
stdout: < 3 µM

stdin: Please give the measured IC50 for this compound: "O=C[C@H](Cc1ccccc1)NC(=O)c1csnc1-c1ccccc1"
stdout: < 3 µM

stdin: Please give the measured IC50 for this compound: "Cc1cc(C(=O)N[C@@H](Cc2ccccc2)C(=O)C(=O)NCc2ccc(Cl)c(Cl)c2)n(-c2ccccc2)n1"
stdout: > 10 µM

stdin: Please give the measured IC50 for this compound: "Cc1cc(C(=O)N[C@@H](Cc2ccccc2)C(=O)C(=O)NC2CC2)n(-c2cncc3ccccc23)n1"
stdout: 3 to 10 µM

stdin: Please give the measured IC50 for this compound: "Cc1noc(-c2ccccc2)c1C(=O)N[C@@H](Cc1ccccc1)C(=O)C(=O)NCc1cccc(S(C)(=O)=O)c1"
stdout: < 3 µM

stdin: Please give the measured IC50 for this compound: "Cc1ccc(-c2c(C(=O)N[C@@H](Cc3ccccc3)C(=O)C(N)=O)cnn2C)cc1"
stdout: < 3 µM

stdin: Please give the measured IC50 for this compound: "O=C(NC1CC1)C(=O)[C@H](Cc1ccccc1)NC(=O)c1cncn1-c1ccc(-c2ccccc2)nn1"
stdout: 3 to 10 µM

stdin: Please give the measured IC50 for this compound: "NC(=O)C(=O)[C@H](Cc1ccccc1)NC(=O)c1conc1-c1ccccn1"
stdout: < 3 µM

stdin: Please give the measured IC50 for this compound: "C=CC[C@H](NC(=O)c1cn(C)nc1-c1ccccc1)C(=O)C(N)=O"
stdout: < 3 µM

stdin: Please give the measured IC50 for this compound: "O=C[C@H](Cc1ccccc1)NC(=O)c1cncn1-c1nc2ccccc2[nH]1"
stdout: 3 to 10 µM

stdin: Please give the measured IC50 for this compound: "NC(=O)C(=O)[C@H](Cc1ccccc1)NC(=O)c1sc(C2CC2)nc1-c1ccccc1"
stdout: < 3 µM

stdin: Please give the measured IC50 for this compound: "Cn1ncc(C(=O)N[C@@H](Cc2ccccc2)C(=O)C(N)=O)c1-c1ccncn1"
stdout: < 3 µM

###

Task for the reader: assign each of the following compounds its reported pIC50.
- Test system: Calpain activity in SH-SY5Y cells
- procedureDetails: SH-SY5Y + AMC fluorescence assay (Suc-LLVY-AMC substrate)
- Format: cell-based
- conditionContext: read-out: SH-SY5Y + AMC IC50
pIC50: −log10 of the molar value.

stdin: Please give the measured pIC50 for this compound: N#Cc1ccc(-c2nn(C3CC3)cc2C(=O)NC(Cc2ccccc2)C(=O)C(N)=O)cn1 (stereo not shown)
stdout: < 4.60

stdin: Please give the measured pIC50 for this compound: Cn1cc(C(=O)NC(Cc2cc(Cl)cc(Cl)c2)C(=O)C(N)=O)c(-c2ccccc2)n1 (stereo not shown)
stdout: 4.60 to 5.00

stdin: Please give the measured pIC50 for this compound: NC(=O)C(=O)C(Cc1ccccc1)NC(=O)c1nsnc1-c1ccc2c(c1)OC(F)(F)O2 (stereo not shown)
stdout: < 4.60

stdin: Please give the measured pIC50 for this compound: O=CC(Cc1ccccc1)NC(=O)c1cn(C(F)F)nc1-c1ccccc1 (stereo not shown)
stdout: 4.60 to 5.00
